This listing pairs molecules with measured TGI.
# System: OVCAR-5 ovarian
# Assay name: NCI tumour cell line growth inhibition, 48 h

Guide cases for TGI, answers given:
>>> result("CCCCN(CC)C(=O)C1=C(C)NC(C)=C(C(=O)N(CC)CCCC)C1")
"> 100 µM"
>>> result("NC(CCCCO)C(=O)O (configuration not stated)")
"> 100 µM"
>>> result("O=C1NC(=O)/C(=C/c2ccc3ncccc3c2)S1")
"> 25 µM"

For the molecule `O=C1c2ccc3c4ccc5c6c(ccc(c7ccc(c2c37)C(=O)N1CCN1CCCCC1)c64)C(=O)N(CCN1CCCCC1)C5=O` , report TGI.
> 100 µM

Item `Nc1ccc(Sc2nnc(N)s2)cc1` : provide TGI
> 100 µM

Retrieve TGI measured for Cc1ccc(S(=O)(=O)N/N=C2/C3CCC(C3)C2c2ccccc2)cc1 (configuration not stated) and print it.
> 100 µM

Provide only the value of recorded TGI for COc1cc(/C=C2\CCC(C)(CN(C)C)C2=O)cc(OC)c1OC (configuration not stated)
> 100 µM

Entry COC(=O)N/N=C(/CC1(O)C(=O)Nc2ccc([N+](=O)[O-])cc21)c1ccccc1 (configuration not stated) needs its TGI filled in; supply it.
> 100 µM

Identify measured TGI associated with O=C1c2c(O)ccc(O)c2C(=O)c2c(NCCNC(=O)C(O)C(O)C(O)C(O)CO)ccc(NCCNC(=O)C(O)C(O)C(O)C(O)CO)c21 (configuration not stated)
1.88 µM

Name the recorded TGI of the item `COC1=C(C)C(=O)N2[C@@H]1[C@H](c1ccccc1)OC21C=CC(=O)C=C1` in your answer.
11.6 µM

Fill in TGI for record `COC(=O)C1=C(C(=O)OC)SC2(S1)C1=C(CCC1)SC(C(=O)OC)=C2C(=O)OC`
34.6 µM

---

# Test system: OVCAR-5 ovarian
# Assay name: NCI tumour cell line growth inhibition, 48 h
Attribute measured: TGI

For orientation, consider the following solved cases.
>>> result("N#CC1=C(N)OC2=C(CCCc3ccc([N+](=O)[O-])cc32)C1c1ccccc1 (centres undefined)")
"43.1 µM"
>>> result("O=C(/C=C/c1c(-c2ccccc2)[nH]c2ccccc12)S(=O)(=O)c1ccccc1")
"> 100 µM"
>>> result("CS(=O)(=O)OCOS(C)(=O)=O")
"> 100 µM"

Moving on to another compound below.
Output TGI of `CCN(Cc1cc(F)cc(F)c1)c1ccc(CO)c(Cl)c1`
0.287 µM

---

# System: EKVX NSCLC
# Assay name: NCI tumour cell line growth inhibition, 48 h
In this section, each of the compounds is paired with its reported TGI.
API: value field is a number in µM; no unit string.

>>> numeric_result("COc1cc(/C=C/[N+](=O)[O-])c([N+](=O)[O-])cc1OC")
22.6

Give reported TGI for `[O-][n+]1c(-c2ccccc2)oc2ccccc21` (EKVX NSCLC)
63

Look up and report TGI, with EKVX NSCLC as system, for `Nc1nc(SCc2ccccc2)nc2[nH]ncc12`
35.8

# return TGI of `COc1cc2c(Oc3ccc4[nH]c(C)cc4c3F)ncnc2cc1OCCCN1CCCC1` (system: EKVX NSCLC)
22.1

Retrieve TGI on EKVX NSCLC; query `CC(=O)c1ccc(Nc2cc(-n3nnc4ccccc43)nc3ccccc23)cc1`
67.4
